- Species: Rattus norvegicus
- assay: Open TG-GATES - Regimen: Daily Repeat
- Assay type: toxicity, organism-based, Sprague-Dawley
- Set-up: regimen Daily Repeat, gender Male, age 6 weeks
- condition.description: in vivo, po, 0 mg/kg, 72 h, tissue Blood, route gavage, dose level Control, time 3 day
property.label: Lym (%)
Reply with just the number (in %).

// worked examples, Lym included
CN(C)CCC=C1c2ccccc2COc2ccccc21 [DOXEPIN]    78.6
CC[C@H]1[C@@H]2C[C@H]3[C@@H]4N(C)c5ccccc5[C@]45C[C@@H]([C@@H]2[C@H]5O)N3[C@@H]1O    75.8
CCc1oc2ccccc2c1C(=O)c1cc(Br)c(O)c(Br)c1    73
CN(C)C(=N)N=C(N)N    75.4

Input line: May I ask what Lym has been recorded for OCCOCCN1CCN(C(c2ccccc2)c2ccc(Cl)cc2)CC1 (stereo unspecified) [HYDROXYZINE] ?
Output line: 74.6

Input line: // next record CC(C)N(CCC(C(N)=O)(c1ccccc1)c1ccccn1)C(C)C (stereo unspecified) [DISOPYRAMIDE]
Output line: 76.8

Input line: // next record "CCC1(c2ccccc2)C(=O)NC(=O)NC1=O"
Output line: 76.8

Input line: // next record "CCCCc1oc2ccccc2c1C(=O)c1cc(I)c(OCCN(CC)CC)c(I)c1"
Output line: 74.8

Input line: // next record CC1=C(CC(=O)O)c2cc(F)ccc2/C1=C\c1ccc([S+](C)[O-])cc1 (stereo unspecified)
Output line: 79

Input line: // next record ClC(Cl)(Cl)Cl [CARBON TETRACHLORIDE]
Output line: 82.4

Input line: // next record "O=NN(CCCl)C(=O)NC1CCCCC1"
Output line: 76.8

====

Entries and their TP
- Species on record: Rattus norvegicus
- assay: Open TG-GATES - Regimen: Single
- Assay type: toxicity, organism-based, Sprague-Dawley
- Parameters: regimen Single, gender Male, age 6 weeks
- condition.description: in vivo, po, 0 mg/kg, 24 h, tissue Plasma, route gavage, dose level Control
Reply with just the number (in g/dL).

CN(C)C(=N)N=C(N)N [METFORMIN]    5.5
O=NN1CCOCC1 [N-NITROSOMORPHOLINE]    5.7

Input line: May I ask what TP has been recorded for ClC(Cl)(Cl)Cl [CARBON TETRACHLORIDE] ?
Output line: 5.7

Input line: // next record CC1=C(CC(=O)O)c2cc(F)ccc2/C1=C\c1ccc([S+](C)[O-])cc1 (stereo unspecified)
Output line: 5.5

Input line: // next record CCc1oc2ccccc2c1C(=O)c1cc(Br)c(O)c(Br)c1 [BENZBROMARONE]
Output line: 5.9

Input line: // next record CN(C)CCC=C1c2ccccc2COc2ccccc21 [DOXEPIN]
Output line: 5.6

====

- Species: Rattus norvegicus
- assay: Open TG-GATES - Regimen: Single
- Assay type: toxicity, organism-based, Sprague-Dawley
- Design: regimen Single, gender Male, age 6 weeks
- condition.description: in vivo, po, 0 mg/kg, 9 h, tissue Blood, route gavage, dose level Control
property.label: Plat (x10_4/uL)
Reply with just the number (in x10_4/uL).

OCCOCCN1CCN(C(c2ccccc2)c2ccc(Cl)cc2)CC1 (stereo not given) [HYDROXYZINE]    110.7
CCC1(c2ccccc2)C(=O)NC(=O)NC1=O [PHENOBARBITAL]    127.9

Input line: May I ask what Plat has been recorded for O=NN(CCCl)C(=O)NC1CCCCC1 [LOMUSTINE] ?
Output line: 107.9

Input line: // next record CCc1oc2ccccc2c1C(=O)c1cc(Br)c(O)c(Br)c1 [BENZBROMARONE]
Output line: 105.2

Input line: // next record ClC(Cl)(Cl)Cl [CARBON TETRACHLORIDE]
Output line: 131.9
